Reported pIC50 is given for each of the following compounds.
Test system: MCF7
Test: Cytotoxicity against human MCF7 cells after 72 hrs by MTT assay
Type: functional, cell-based
Conditions: MCF7, 72 h
pIC50: −log10 of the molar value.

CC(=O)O[C@@H]1C[C@@]23C[C@@]24CC[C@H](O[C@@H]2OC[C@@H](O)[C@H](O)[C@H]2O)C(C)(C)[C@@H]4CC[C@H]3[C@]2(C)C[C@@H]3OC(C(=O)C(C)C)=C[C@@H](C)[C@@H]3[C@@]12C [ASIATICOSIDE A]    < 4.00

pIC50 for CC(C)(O)[C@@H]1Cc2c(cc3oc(CO)cc(=O)c3c2O)O1 [NORCIMIFUGIN] is < 4.00

pIC50 for CC(=O)O[C@@H]1C[C@@]23C[C@@]24CC[C@H](O)C(C)(C)[C@@H]4CC[C@H]3[C@]2(C)C[C@@H]3O[C@@]4(CC[C@@]5(C)O[C@@H]45)C[C@@H](C)[C@@H]3[C@@]12C is < 4.00
